This collection of values is drawn from patent US12319655B2.

# system: C-Raf kinase (SEQ. ID NO: 3) (Homo sapiens (Human), UniProt P04049, Y340D/Y341D)
# Sequence (P04049 307-648 Y340D/Y341D): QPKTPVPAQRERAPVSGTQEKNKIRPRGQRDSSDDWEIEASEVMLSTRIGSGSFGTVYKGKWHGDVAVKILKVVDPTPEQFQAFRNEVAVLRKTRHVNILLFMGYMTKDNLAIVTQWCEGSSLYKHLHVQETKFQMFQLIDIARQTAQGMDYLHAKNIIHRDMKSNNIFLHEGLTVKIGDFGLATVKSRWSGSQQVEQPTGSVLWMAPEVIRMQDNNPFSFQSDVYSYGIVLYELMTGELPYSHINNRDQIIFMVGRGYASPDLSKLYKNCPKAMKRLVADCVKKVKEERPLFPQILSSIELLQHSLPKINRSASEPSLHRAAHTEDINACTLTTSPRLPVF
# protocol_text: Biochemical Assay for C-Raf (2)
# condition_summary: Table J, biochemical assay (2); read-out: CRAF (2)
pIC50: −log10 of the molar value.
reported_metric: pIC50

molecule="CNC(=O)c1cc(-c2cc(-c3cc(NC(=O)c4ccnc(C5CC5)c4)cnc3C)ccn2)ccn1 [Example 462]" readout_value="≥ 7.00"
molecule="[2H]C([2H])([2H])NC(=O)c1cc(-c2cc(-c3cc(NC(=O)c4ccnc(C(C)(C)F)c4)ccc3C)cc(C)n2)ccn1 [Example 493]" readout_value="≥ 7.00"

Now let's try a different one.
Given the entry Cc1ccc(NC(=O)c2ccnc(C(C)(C)F)c2)cc1-c1cc(-c2ccnc(C(N)=O)c2)ncn1 [Example 488] , report its measured pIC50.
≥ 7.00
